Assignment: determine reported relative cell viability for the given compounds.
- Tested on: MDA-MB-231;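 also: viability read out with the CCK-8 kit in 96-well plates, screening a set of 303 compounds acting on lipid metabolism targets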
- Assay details: relative cell viability, compound alone, vs DMSO (fraction of DMSO control); higher = less growth inhibition
- Condition parameters: 72 h

Task: What reported relative cell viability corresponds to CC(C)=CCC[C@](C)(O)[C@H]1CC[C@]2(C)[C@@H]1[C@H](O)C[C@@H]1[C@@]3(C)CC[C@H](O)C(C)(C)[C@@H]3[C@@H](O[C@@H]3O[C@H](CO)[C@@H](O)[C@H](O)[C@H]3O)C[C@]12C [Ginsenoside Rh1] on MDA-MB-231?
Output: 1.03

Task: What reported relative cell viability corresponds to C[C@@]12C[C@@H](c3ccoc3)OC(=O)[C@@H]1CC[C@]1(C)[C@H]2[C@@H]2C=C[C@@]1(O)C(=O)O2 [Columbin] on MDA-MB-231?
Output: 1.06

Task: What reported relative cell viability corresponds to O=C1C=CC[C@@H]2[C@H]3CCCN4CCC[C@@H](CN12)[C@@H]34 [Sophocarpine] on MDA-MB-231?
Output: 0.906

Task: What reported relative cell viability corresponds to O=C(CBr)c1ccc(O)cc1 [PTP Inhibitor I] on MDA-MB-231?
Output: 0.937

Task: What reported relative cell viability corresponds to Cc1cc(SCc2sc(-c3ccc(C(F)(F)F)c(F)c3)nc2C)ccc1OCC(=O)O on MDA-MB-231?
Output: 0.892

Task: What reported relative cell viability corresponds to C[C@@H]1C(=O)O[C@H]2[C@H](O)[C@@]34O[C@@H]5OC(=O)[C@H](O)[C@@]56[C@H](C(C)(C)C)[C@H](O)C(OC3=O)[C@]64[C@@]12O (stereo partly specified) [Ginkgolide C] on MDA-MB-231?
Output: 1.08

These entries and their values trace back to the supplement of paper PMC9492666.
